Test system: MINK
Construct: gene MINK1
Settings: concentration: 1 μM,replicates: in singlicate; n = 1;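 also: KINOMEscan kinase panel screen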
Reported %Inh values follow for various molecules
Test readout: %Inh (%)

[
  {
    "Substance smiles": "CS(=O)(=O)c1cccc(CNc2nc(Nc3ccc4c(c3)[C@@H]3C[C@@H]4CNC3=O)ncc2C(F)(F)F)c1",
    "Experimental value": 90.3
  },
  {
    "Substance smiles": "COc1cccc(C2=C(Nc3cccc(Cl)c3)C(=O)NC2=O)c1",
    "Experimental value": 0
  },
  {
    "Substance smiles": "CN(c1ccccc1CNc1nc(Nc2ccc3c(c2)CC(=O)N3)ncc1C(F)(F)F)S(C)(=O)=O",
    "Experimental value": 48
  },
  {
    "Substance smiles": "Nc1nccc(-c2ccc3c(N)n[nH]c3c2)n1",
    "Experimental value": 47
  },
  {
    "Substance smiles": "NC(=O)c1ccc(-c2cc3ncnc(SCC(=O)O)c3s2)cc1",
    "Experimental value": 39
  },
  {
    "Substance smiles": "Cc1ccc(CC(=O)N2CCc3cc(-c4cn(C)c5ncnc(N)c45)ccc32)cc1",
    "Experimental value": 6
  }
]

====

Test system: NEK10
Conditions: concentration: 1 μM,replicates: in singlicate; n = 1
Some compounds, each annotated with its measured %Inh.
Test readout: %Inh (%)

[
  {
    "Compound": "COC(=O)c1cccc(NC(=O)NC2CCN(c3ccnc(Nc4cc(OC)c(OC)c(OC)c4)n3)C2)c1 (centres unmarked)",
    "System under test": "NEK10",
    "Test readout": "%Inh",
    "Unit text": "%",
    "Experimental value": 3
  },
  {
    "Compound": "CCNCC(Cc1ccccc1)NC(=O)c1cc(Br)c(-c2ccnc3[nH]ccc23)s1.Cl.Cl (centres unmarked)",
    "System under test": "NEK10",
    "Test readout": "%Inh",
    "Unit text": "%",
    "Experimental value": 0
  },
  {
    "Compound": "Cc1nnc(-c2ccc3occ(-c4ccc(S(C)=O)cc4)c3n2)o1 (centres unmarked)",
    "System under test": "NEK10",
    "Test readout": "%Inh",
    "Unit text": "%",
    "Experimental value": 0
  },
  {
    "Compound": "C[C@@H]1CCN(C(=O)N2CCCC2)C[C@@H]1N(C)c1ncnc2[nH]ccc12",
    "System under test": "NEK10",
    "Test readout": "%Inh",
    "Unit text": "%",
    "Experimental value": 30
  },
  {
    "Compound": "Cc1cccc2c(-c3ccncc3)c(-c3ccc(F)cc3)nn12.Cl",
    "System under test": "NEK10",
    "Test readout": "%Inh",
    "Unit text": "%",
    "Experimental value": 14
  },
  {
    "Compound": "O=C(Nc1cccc(Oc2ccc3nccn3n2)c1)Nc1cccc(C(F)(F)F)c1",
    "System under test": "NEK10",
    "Test readout": "%Inh",
    "Unit text": "%",
    "Experimental value": 0
  },
  {
    "Compound": "C[C@@H]1CNc2c(sc3ccc4nc(-c5ccncc5)ccc4c23)C(=O)N1",
    "System under test": "NEK10",
    "Test readout": "%Inh",
    "Unit text": "%",
    "Experimental value": 7
  },
  {
    "Compound": "FC(F)(F)c1cc(Br)cc(Nc2nccc(-c3cnn4ncccc34)n2)c1",
    "System under test": "NEK10",
    "Test readout": "%Inh",
    "Unit text": "%",
    "Experimental value": 40
  },
  {
    "Compound": "Cc1ccc(CC(=O)N2CCc3cc(-c4cn(C)c5ncnc(N)c45)ccc32)cc1",
    "System under test": "NEK10",
    "Test readout": "%Inh",
    "Unit text": "%",
    "Experimental value": 0
  },
  {
    "Compound": "CS(=O)(=O)c1cccc(CNc2nc(Nc3ccc4c(c3)[C@@H]3C[C@@H]4CNC3=O)ncc2C(F)(F)F)c1",
    "System under test": "NEK10",
    "Test readout": "%Inh",
    "Unit text": "%",
    "Experimental value": 0
  },
  {
    "Compound": "C[C@@H]1CNc2c(sc3ccc4nc(-c5ccc(O)cc5)ccc4c23)C(=O)N1",
    "System under test": "NEK10",
    "Test readout": "%Inh",
    "Unit text": "%",
    "Experimental value": 7
  },
  {
    "Compound": "O=C(NCC1CC1)c1ccc(-c2cc(C(=O)NC3CC3)ccc2F)cc1",
    "System under test": "NEK10",
    "Test readout": "%Inh",
    "Unit text": "%",
    "Experimental value": 0
  },
  {
    "Compound": "CNC(=O)c1ccccc1Nc1nc(Nc2cccc(CS(C)(=O)=O)c2)ncc1C.O=CO",
    "System under test": "NEK10",
    "Test readout": "%Inh",
    "Unit text": "%",
    "Experimental value": 14
  },
  {
    "Compound": "COc1cccc(OC)c1C(=O)Nc1cccc(-c2nn3ccccc3c2-c2ccnc(Nc3cccc(F)c3)n2)c1",
    "System under test": "NEK10",
    "Test readout": "%Inh",
    "Unit text": "%",
    "Experimental value": 0
  },
  {
    "Compound": "COC(=O)c1cccc(NC(=O)NC2CCN(c3ccnc(NCc4ccc(F)cc4)n3)CC2)c1",
    "System under test": "NEK10",
    "Test readout": "%Inh",
    "Unit text": "%",
    "Experimental value": 1
  },
  {
    "Compound": "CCn1c(-c2nonc2N)nc2cncc(CNC3CCNCC3)c21.Cl",
    "System under test": "NEK10",
    "Test readout": "%Inh",
    "Unit text": "%",
    "Experimental value": 20
  },
  {
    "Compound": "Nc1nccc(-c2ccc3c(N)n[nH]c3c2)n1",
    "System under test": "NEK10",
    "Test readout": "%Inh",
    "Unit text": "%",
    "Experimental value": 0
  },
  {
    "Compound": "Cc1n[nH]c2cc(Nc3ccnc(Nc4cccc(CN5CCOCC5)c4)n3)ccc12",
    "System under test": "NEK10",
    "Test readout": "%Inh",
    "Unit text": "%",
    "Experimental value": 9
  },
  {
    "Compound": "Cn1ccc2ncnc(Oc3ccc(NC(=O)Nc4cccc(C(F)(F)F)c4)c(Cl)c3)c21",
    "System under test": "NEK10",
    "Test readout": "%Inh",
    "Unit text": "%",
    "Experimental value": 0
  },
  {
    "Compound": "Cc1ccn2nc(-c3ccc(F)cc3)c(-c3ccncc3)c2c1.Cl",
    "System under test": "NEK10",
    "Test readout": "%Inh",
    "Unit text": "%",
    "Experimental value": 0
  }
]
